The measurements presented in this section are drawn from patent US8551965B2.

system: varicella zoster virus (VZV) viral strain YS; TK deficient; assay: VZV plaque reduction in tissue culture, strain YS, TK deficient; assay type: cell-based; conditions: Human alphaherpesvirus 3, 120 h, read-out: EC50 VZV TK-YS
pEC50: −log10 of the molar value.
measuredParameter: pEC50

Q: Param readout = pEC50; param system = varicella zoster virus (VZV) viral strain YS; TK deficient; param query = CCCCCCCOc1ccc(-c2cc3cn([C@H]4C[C@H](O)[C@@H](CO)O4)c(=O)nc3o2)cc1 [Example 19] ; response: value
Ans: < 4.70

Q: What is its pEC50 for varicella zoster virus (VZV) viral strain YS; TK deficient? Entry: CCCOc1ccc(-c2cc3cn([C@H]4C[C@H](O)[C@@H](CO)O4)c(=O)nc3o2)cc1 [Example 16]
Ans: < 4.30

Q: API: value(readout=pEC50, system=varicella zoster virus (VZV) viral strain YS; TK deficient) for record CCCCCOc1ccc(-c2cc3cn([C@H]4C[C@H](O)[C@@H](CO)O4)c(=O)nc3o2)cc1 [Example 17]
Ans: < 4.70

Q: // lookup pEC50 | system=varicella zoster virus (VZV) viral strain YS; TK deficient | key= COc1ccc(-c2cc3cn([C@H]4C[C@H](O)[C@@H](CO)O4)c(=O)nc3o2)cc1 [Example 14]
Ans: < 4.30

Q: Give varicella zoster virus (VZV) viral strain YS; TK deficient pEC50 for O=c1nc2oc(-c3ccc(Br)cc3)cc2cn1[C@H]1C[C@H](O)[C@@H](CO)O1 [Example 12]
Ans: < 5.30

Q: Give the reported pEC50 for CCCCCCOc1ccc(-c2cc3cn([C@H]4C[C@H](O)[C@@H](CO)O4)c(=O)nc3o2)cc1 [Example 18] (system: varicella zoster virus (VZV) viral strain YS; TK deficient).
Ans: < 4.70

Q: Form entry - test system: varicella zoster virus (VZV) viral strain YS; TK deficient; read-out: pEC50; molecule: CCCCCCCCCCc1cc2cn([C@H]3C[C@H](O)[C@@H](CO)O3)c(=O)nc2o1 [Ex2 WO 98/49177, reference compound]
Ans: < 4.30

Q: Query pEC50 on varicella zoster virus (VZV) viral strain YS; TK deficient for CCOc1ccc(-c2cc3cn([C@H]4C[C@H](O)[C@@H](CO)O4)c(=O)nc3o2)cc1 [Example 15]
Ans: < 4.30

Q: For varicella zoster virus (VZV) viral strain YS; TK deficient, provide pEC50 of O=c1nc2oc(-c3ccc(Cl)cc3)cc2cn1[C@H]1C[C@H](O)[C@@H](CO)O1 [Example 11] please.
Ans: < 4.70

----------
So I've got a bunch of compounds here, and I need their CC50 values.
test system: human embryonic lung cells; experiment: Cytotoxicity to human embryonic lung cells; assay type: cell-based; details: 50% cytotoxic concentration to human embryonic lung cells

Q: Provide value of CC50 for this record tested with human embryonic lung cells: `Cc1ccc(-c2cc3cn([C@H]4C[C@H](O)[C@@H](CO)O4)c(=O)nc3o2)cc1`
Ans: > 200 µM

Q: For the record `CCCCCCCCc1ccc(-c2cc3cn([C@H]4C[C@H](O)[C@@H](CO)O4)c(=O)nc3o2)cc1` , what value of CC50 is listed for human embryonic lung cells?
Ans: > 200 µM

Q: Hi! What's the reported CC50 for `O=c1nc2oc(-c3ccc(F)cc3)cc2cn1[C@H]1C[C@H](O)[C@@H](CO)O1` on human embryonic lung cells?
Ans: 171 µM

Q: Test system human embryonic lung cells; read-out CC50; what value for `O=c1nc2oc(-c3ccccc3)cc2cn1[C@H]1C[C@H](O)[C@@H](CO)O1` ?
Ans: > 200 µM
